Target: HUI77, murine IgM anti-denatured-collagen monoclonal antibody
Assay: competition ELISA on coated dn-collagen IV
Square brackets hold non-standard residues; d marks the D form. Ends that are not written are not given here. Hyp = O=C(O)[C@@H]1C[C@@H](O)CN1
Assay endpoint: % inhibition of HUI77 binding to dn-collagen IV, peptide 100 µM (%)
Answers are plain numbers, in %.

[
  {
    "Binder": "L[Hyp]GP[Hyp]G [synthetic peptide No. 16, LPGPPG (SEQ ID NO: 24)]",
    "Assay result": 8
  }
]

Hi, could you look up % inhibition of HUI77 binding to dn-collagen IV, peptide 100 µM for each item in my list?
1. LPGP[Hyp]GP[Hyp]G [synthetic peptide No. 20, … (SEQ ID NO: 21)]
2. LPGFPGC (also: hydroxyproline marking, if any, lost) [synthetic peptide No. 9, LPGFPGC (SEQ ID NO: 37)]

result:
[18, 7.5]

Hi, could you look up % inhibition of HUI77 binding to dn-collagen IV, peptide 100 µM for each item in my list?
1. GP[Hyp]GP[Hyp]GPY [synthetic peptide No. 3, … (SEQ ID NO: 30)]
2. PGP[Hyp]GP[Hyp]GP [synthetic peptide No. 1, … (SEQ ID NO: 29)]
3. [Hyp]GAKGLPGP[Hyp]GP[Hyp]GPY [synthetic peptide No. 12, … (SEQ ID NO: 2)]
4. L[Hyp]GT[Hyp]G [synthetic peptide No. 8, LPGTPG (SEQ ID NO: 27)]

result:
12
12.5
18
4.5

Source listed as patent US20080008707A1.
